- target: Purine nucleoside phosphorylase (Homo sapiens)
- protocol summary: Inhibition of human erythrocyte purine nucleoside phosphorylase (PNPase) in the presence of ethylenediaminetetraacetic acid (Na2 EDTA)
pKi: −log10 of the molar value.
Cut-off 6 on pKi, inclusive. At or above means 1; below means -1.

| record smiles | target | assigned label |
| --- | --- | --- |
| CCOP(=O)(O)CP(=O)(O)CCCCCn1cnc2c(O)nc(N)nc21 | Purine nucleoside phosphorylase (Homo sapiens) | -1 |
| Nc1nc(O)c2ncn(CCCCCCP(=O)(O)CP(=O)(O)O)c2n1 | Purine nucleoside phosphorylase (Homo sapiens) | 1 |

API: the following record is the query input.
Check this compound for pKi at or above 6: `O=c1[nH]c(=O)c2ncn(CCCCCP(=O)(O)CP(=O)(O)O)c2[nH]1` -1

====

- target: Purine nucleoside phosphorylase (Homo sapiens, UniProt P00491)
- Sequence (P00491 whole entry): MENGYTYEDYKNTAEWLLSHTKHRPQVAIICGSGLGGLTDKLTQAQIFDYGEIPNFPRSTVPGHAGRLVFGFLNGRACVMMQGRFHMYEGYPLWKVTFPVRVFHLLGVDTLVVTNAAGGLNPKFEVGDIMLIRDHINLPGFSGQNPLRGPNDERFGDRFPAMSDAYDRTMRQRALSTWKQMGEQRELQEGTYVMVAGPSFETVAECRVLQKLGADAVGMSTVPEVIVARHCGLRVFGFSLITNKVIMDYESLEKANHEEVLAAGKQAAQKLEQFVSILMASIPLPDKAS
- protocol summary: Inhibition of human erythrocyte purine nucleoside phosphorylase (PNPase) in the presence of zinc chloride
observable: log10 of Ki (log10 of the value in nM)
Log10 applied to Ki; unit prior to transform: nM.

Solved cases below.
| record smiles | log10 of Ki |
| --- | --- |
| O=c1[nH]c(=O)c2ncn(CCCCCP(=O)(O)CP(=O)(O)O)c2[nH]1 | 3.15 |
| Nc1nc(O)c2ncn(CCCCP(=O)(O)CP(=O)(O)O)c2n1 | 2.00 |
| CCOP(=O)(O)CP(=O)(O)CCCCCn1cnc2c(O)nc(N)nc21 | 3.04 |
| Nc1nc(O)c2ncn(CCCCCCP(=O)(O)CP(=O)(O)O)c2n1 | 0.57 |

Hello, I am looking for reported log10 of Ki with Purine nucleoside phosphorylase (Homo sapiens, UniProt P00491) for `Nc1nc(O)c2ncn(CCCCCCCP(=O)(O)CP(=O)(O)O)c2n1` . Could you help? 1.00
